Biological target: UniProt Q9H0K1
Sequence (Q9H0K1 whole entry, species assumed): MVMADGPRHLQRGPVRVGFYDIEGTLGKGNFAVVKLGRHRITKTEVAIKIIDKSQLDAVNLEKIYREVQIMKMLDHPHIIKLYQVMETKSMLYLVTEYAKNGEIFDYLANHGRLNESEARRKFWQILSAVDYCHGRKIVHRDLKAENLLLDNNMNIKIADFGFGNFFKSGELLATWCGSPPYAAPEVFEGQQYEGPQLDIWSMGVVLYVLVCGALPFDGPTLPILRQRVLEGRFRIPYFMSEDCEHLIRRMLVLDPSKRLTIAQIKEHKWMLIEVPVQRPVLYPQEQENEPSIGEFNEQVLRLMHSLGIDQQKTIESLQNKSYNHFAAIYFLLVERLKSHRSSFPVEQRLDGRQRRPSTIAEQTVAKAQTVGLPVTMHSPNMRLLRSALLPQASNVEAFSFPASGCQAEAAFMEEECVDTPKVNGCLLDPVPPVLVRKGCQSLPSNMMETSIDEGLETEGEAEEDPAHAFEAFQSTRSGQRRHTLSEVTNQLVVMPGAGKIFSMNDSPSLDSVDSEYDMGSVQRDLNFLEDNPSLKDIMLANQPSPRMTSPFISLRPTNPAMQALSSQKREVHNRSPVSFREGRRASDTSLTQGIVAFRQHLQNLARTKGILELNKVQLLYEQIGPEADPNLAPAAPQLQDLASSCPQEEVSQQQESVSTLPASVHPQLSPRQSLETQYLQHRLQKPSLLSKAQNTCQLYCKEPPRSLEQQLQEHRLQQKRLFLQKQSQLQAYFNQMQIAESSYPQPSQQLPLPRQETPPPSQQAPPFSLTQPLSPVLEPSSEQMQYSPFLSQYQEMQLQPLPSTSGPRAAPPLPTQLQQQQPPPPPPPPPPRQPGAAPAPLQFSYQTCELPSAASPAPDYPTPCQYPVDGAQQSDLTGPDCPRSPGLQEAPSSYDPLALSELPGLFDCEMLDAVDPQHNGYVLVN
Test: SIK2 Enzymatic Assay Version 2 (High ATP)
Format: biochemical
Conditions: 3 mM ATP and 200 μM HDAC5tide final, ADP-Glo Max luminescence
Method: All steps were performed at room temperature. Compounds were pre-plated onto an assay plate using an Echo acoustic dispenser (Labcyte, […] or […]) at 80 nL per well. […] The plate was then read on the Pherastar (BMG Labtech) using a luminescence read. […]
pIC50: −log10 of the molar value.
Let's look at some molecules and their measured pIC50.

Cc1cc(Nc2cc3cc(-c4c(OC[C@H]5CCN5C)cnn4C)ccn3n2)nc(C2CC2)n1 yielded pIC50 of > 9.07

CN1CC[C@@H](COc2cnn(Cc3ccccc3)c2-c2ccn3nc(NC(=O)C4CC4)cc3c2)C1 yielded pIC50 of < 4.30

[2H]C([2H])([2H])C([2H])([2H])N1CCC[C@@H]1COc1cnn(C)c1-c1ccn2nc(Nc3cc(C)nc(C)n3)cc2c1 yielded pIC50 of > 9.07

Query molecule follows.
Cc1cc(Nc2cc3cc(-c4c(OC[C@H]5CCN5C)cnn4C)ccn3n2)nc(C)n1 yielded pIC50 of > 9.07
